Reference source for all entries: patent US20200087400A1

- Assay system: T1, control peptide A2E-15/HLA-A*02:01 complex on T2 cells (member of the P19 mixture) (human)
- T1 construct: Loaded on T2 cells as part of the mixture of 19 control peptides
- Assay protocol: flow cytometry, phage on T2 cells
Test readout: binding result

PSA146/HLA-A*02:01-specific scFv phage clone #13 (scFv, V domains shown) VH: QVQLVQSGAEVKKPGASVKVSCKASGYTFTSYYMHWVRQAPGQGLEWMGGFDPEDGETIYAQKFQGRVTMTEDTSTDTAYMGLSSLRSEDTAVYYCARYSYDYWGQGTLVTVSS VL: QAVVTQEPSLTVSPGGTVTLTCASSTGAVTSGYYPNWFQQKPGQAPRALIYSTSNKHSWTPARFSGSLLGGKAALTLSGVQPEDEAEYYCLLYYGGAYVFGTGTKVTVLG ... no binding
PSA146/HLA-A*02:01-specific scFv phage clone #17 (scFv, V domains shown) VH: QMQLVQSGAEVKKPGESLKISCKGSGYSFTSYWIGWVRQMPGKGLEWMGIIYPGDSDTRYSPSFQGQVTISADKSISTAYLQWSSLKASDTAMYYCARLVVPDAFDIWGQGTMVTVSS VL: QSVVTQPPSVSAAPGQKVTISCSGSSSNIGNNYVSWYQQLPGTAPKLLIYDNYKRPSGIPDRFSGSKSGTSATLGITGLQTGDEADYYCGTWDSSLSAGVFGGGTKLTVLG ... no binding
PSA146/HLA-A*02:01-specific scFv phage clone #5 (scFv, V domains shown) VH: QVQLVQSGAEVKKPGDSVKVSCKPSGYNFLNYGINWVRQAPGQGLEWMGWISTYTGNTNYAQKLQGRVTFTTDTSTSTAYMEMRSLRSDDTAVYYCARSSEYYTWDHWGQGTLVTVSS VL: QSVLTQPPSVSGAPGQRVTISCTGSSSNIGAGYDVHWYQQLPGTAPKLLIYGNSNRPSGVPDRFSGSKSGTSASLAITGLQAEDEADYYCQSYDSSLSGWVFGGGTKLTVLG ... no binding
